# Tested on: HCT-116
# assay-explanation: NCI tumour cell line growth inhibition, 48 h
Activity calls are given as the source filed them. Rule as the data show it: active = GI50 up to about 1.1 µM and inactive = higher. Square brackets hold non-standard residues; d marks the D form. Peptide text beside a SMILES is read from it. Ac5c = NC1(C(=O)O)CCCC1
The following compounds are shown together with reported GI50 values.

[
  {
    "compound": "CCCCSC1=N/C(=C\\c2ccc(N(C)C)cc2)C(=O)N1",
    "GI50": "25 µM (inactive)"
  },
  {
    "compound": "O=C1C2C3CCC(C2C(=O)N1CO)C1C2C(=O)N(CO)C(=O)C2C31 (stereo not drawn)",
    "GI50": "28.2 µM (inactive)"
  },
  {
    "compound": "Cn1c(=O)oc2cc(C3CCC(=O)N3Cc3ccc(Cl)cc3)ccc21 (stereo not drawn)",
    "GI50": "> 100 µM (inactive)"
  },
  {
    "compound": "NC(CCC(=O)O)C(=O)NC(Cc1ccc(N(CCCl)CCCl)cc1)C(=O)O (stereo not drawn)",
    "GI50": "> 100 µM (inactive)"
  },
  {
    "compound": "CC(C)(O)[C@@H]1CC[C@@]2(C)CCC[C@H](O)[C@H]2C1",
    "GI50": "> 100 µM (inactive)"
  },
  {
    "compound": "O=C(Nc1cccc(O)c1)C(=O)C1C(=O)NC(=S)NC1=O",
    "GI50": "> 100 µM (inactive)"
  },
  {
    "compound": "COC(=O)c1cccc2c1Oc1ccccc1S2",
    "GI50": "47.1 µM (inactive)"
  },
  {
    "compound": "COc1cccc(C=C2N=C(C)N(n3c(-c4ccccc4)nc4ccccc4c3=O)C2=O)c1",
    "GI50": "> 100 µM (inactive)"
  },
  {
    "compound": "CCCC(C(=O)Nc1cccc2nc[nH]c12)C(=O)OCC (stereo not drawn)",
    "GI50": "> 100 µM (inactive)"
  },
  {
    "compound": "CCCCCCCCCCCC1CC(=O)NCCCN(C)CCCCN(C)CCCN1C (stereo not drawn)",
    "GI50": "1.55 µM (inactive)"
  },
  {
    "compound": "CC(C)(C)c1nc2c(o1)/C(=N\\c1ccc(F)cc1)c1ccccc1C2=O",
    "GI50": "5.12 µM (inactive)"
  },
  {
    "compound": "CCOC(=O)C(O)(NC(C)=O)C(F)(F)F (stereo not drawn)",
    "GI50": "> 100 µM (inactive)"
  },
  {
    "compound": "CN1CCCN(C)CCCN(C)CCCN(C)CCC1",
    "GI50": "> 100 µM (inactive)"
  },
  {
    "compound": "O=C(CCCCCCCCCCc1ccccc1)c1c(O)cccc1O",
    "GI50": "22.7 µM (inactive)"
  },
  {
    "compound": "NCC(=O)NC1(C(=O)O)CCCC1 (H-Gly-[Ac5c]-OH)",
    "GI50": "> 100 µM (inactive)"
  },
  {
    "compound": "COC(=O)[C@]1(C)CCC[C@]2(C)C3CC4OOC3(C=C4C(C)C)CCC21 (stereo partly drawn)",
    "GI50": "15.7 µM (inactive)"
  },
  {
    "compound": "O=NN(CCF)C(=O)NC1CC2CCC1C2 (stereo not drawn)",
    "GI50": "> 100 µM (inactive)"
  },
  {
    "compound": "CN1C(=O)C(O)CC1c1ccccc1F (stereo not drawn)",
    "GI50": "> 100 µM (inactive)"
  },
  {
    "compound": "CSC1=N/C(=C\\c2ccc(C)cc2)C(=O)N1CN1CCCCC1",
    "GI50": "84.9 µM (inactive)"
  },
  {
    "compound": "c1ccc([P+](CCC[P+](c2ccccc2)(c2ccccc2)c2ccccc2)(c2ccccc2)c2ccccc2)cc1",
    "GI50": "20.1 µM (inactive)"
  },
  {
    "compound": "COc1cc(CC(C)N)ccc1O (stereo not drawn)",
    "GI50": "> 100 µM (inactive)"
  },
  {
    "compound": "CC1(C)O[C@H]2Cn3c(c(C#N)c4ccccc43)[C@H]2O1",
    "GI50": "> 100 µM (inactive)"
  },
  {
    "compound": "NS(=O)(=O)c1nnc(NC(=S)NC(=O)Nc2ccc(Cl)c(Cl)c2)s1",
    "GI50": "16.9 µM (inactive)"
  },
  {
    "compound": "COC(=O)C1(O)C(c2ccccc2)=NC2(C)CCCC21 (stereo not drawn)",
    "GI50": "> 100 µM (inactive)"
  },
  {
    "compound": "Cc1ccc(C(=O)OCC(C)C)cc1/N=N/N(C)C",
    "GI50": "> 61.9 µM (inactive)"
  },
  {
    "compound": "O=S(=O)(O)c1ccc2c(/N=N/c3ccc(Sc4ccc(/N=N/c5c(O)ccc6cc(S(=O)(=O)O)ccc56)cc4)cc3)c(O)ccc2c1",
    "GI50": "> 100 µM (inactive)"
  },
  {
    "compound": "CCCC1NC(=O)C(CC(C)C)NC(=O)c2cccc(n2)C(=O)NC(CC(C)C)C(=O)NC(CCC)C(=O)NC(C(=O)OC)CCCCNC1=O (stereo not drawn)",
    "GI50": "34 µM (inactive)"
  },
  {
    "compound": "CCCCC1=NNC(=O)C1",
    "GI50": "> 100 µM (inactive)"
  },
  {
    "compound": "CN1CCCOC(c2ccc([N+](=O)[O-])cc2)O1 (stereo not drawn)",
    "GI50": "> 100 µM (inactive)"
  },
  {
    "compound": "NC(=O)/C=C/c1c[nH]c2nccnc12",
    "GI50": "1.59 µM (inactive)"
  },
  {
    "compound": "CCOC(=O)C1N(S(=O)(=O)c2ccc(C)cc2)CCC12C(c1ccc(OC)cc1)NC1CCCCC12 (stereo not drawn)",
    "GI50": "> 100 µM (inactive)"
  },
  {
    "compound": "O=C1c2ccccc2C2(O)NC(=S)N(c3ccccc3)C12O (stereo not drawn)",
    "GI50": "> 100 µM (inactive)"
  },
  {
    "compound": "O=C(CC1(O)C(=O)Nc2ccccc21)c1ccc2ccccc2c1 (stereo not drawn)",
    "GI50": "> 100 µM (inactive)"
  },
  {
    "compound": "O=C(NN1C(=O)/C(=C/c2ccc(Cl)cc2)N=C1c1ccccc1)c1c(Cl)c(Cl)c(Cl)c(Cl)c1-c1nc2ccccc2[nH]1",
    "GI50": "15.6 µM (inactive)"
  },
  {
    "compound": "COC(=O)C(C/C=C(\\C)c1ccccc1)C(C)=O (stereo not drawn)",
    "GI50": "57.1 µM (inactive)"
  },
  {
    "compound": "C/C(=N\\O)C1CC2C=C(C#N)C1N(Cc1ccccc1)C2 (stereo not drawn)",
    "GI50": "> 100 µM (inactive)"
  },
  {
    "compound": "CS/C1=C(\\c2ccc(C)cc2)N(c2ccccc2)C(=O)C(=O)N(c2ccccc2)/C(c2ccc(C)cc2)=C(/SC)SS1",
    "GI50": "> 100 µM (inactive)"
  },
  {
    "compound": "Nc1n[n+]2cc(-c3ccccc3)n(CC(=O)c3ccccc3)c2s1",
    "GI50": "16.7 µM (inactive)"
  },
  {
    "compound": "CCOC(=O)C(Cc1ccc([N+](=O)[O-])cc1)NC(=O)CC1c2ccccc2-c2ccccc21 (stereo not drawn)",
    "GI50": "> 100 µM (inactive)"
  },
  {
    "compound": "COC(=O)c1ccc(NCc2cc(O)ccc2O)cc1O",
    "GI50": "17.5 µM (inactive)"
  },
  {
    "compound": "C(=N\\c1ccc(-c2nc3ccccc3[nH]2)cc1)/c1ccc[nH]1",
    "GI50": "50.9 µM (inactive)"
  },
  {
    "compound": "CCOc1ccccc1NC(=O)CCc1nnc(S)[nH]1",
    "GI50": "> 100 µM (inactive)"
  },
  {
    "compound": "O=C(NCCc1ccccc1)[C@H]1CCCC[C@@H]1CCO",
    "GI50": "> 100 µM (inactive)"
  }
]
